Data origin: a melting point compilation (Tetko et al.; mined from patent text by program, amines drawn as free bases though some values may be those of a salt)

PROPERTY_MEASURED: melting point (°C)
Answers are plain numbers, in °C.

Name the recorded melting point for `CON(C)S(=O)(=O)c1ccccc1N` .
50

Name the recorded melting point for Cn1cncc1C(c1ccc(Cl)cc1)c1ccc2c(c1)C(c1cccc(Cl)c1)SCc1nnnn1-2 (stereo not given) .
162

Name the recorded melting point for CC1(C)OC(=C(C#N)C#N)C(C#N)=C1c1ccc(C2CCCCCN2)s1 (stereo not given) .
264

# context switch: different compound, same melting point
Name the recorded melting point for `O=c1oc(C(F)F)nc2c(C(F)(F)F)cccc12` .
82

---

What melting point was measured for each of the following?

Name the recorded melting point for `CCCCc1nn(-c2cc([N+](=O)[O-])ccc2Br)c(=O)n1Cc1ccc(-c2ccccc2S(=O)(=O)NC(C)(C)C)cc1F` .
137 to 139 °C

Name the recorded melting point for `CCCCOc1c(CNC(=O)OC(C)(C)C)n(CC2CC2)c(=O)c2ccc(C(N)=O)cc12` .
202 to 203 °C

Name the recorded melting point for CCN1CCCC1CNC(=O)c1cccc(N(C2CN(C(c3ccc(Cl)cc3)c3ccc(Cl)cc3)C2)S(C)(=O)=O)c1 (single isomer, unassigned; (+)) .
122 °C

Answer for every listed entry: what is its melting point? The entries follow.
1. N#Cc1ccc(C(=O)NCc2ccc(N3CC(C(=O)O)OC3=O)cc2)cc1 (stereo not drawn)
2. CCCCCCCCCCOc1ccc(-c2nc3ccc(C(=O)O)cc3o2)cc1C12CC3CC(CC(C3)C1)C2
3. COc1ccc2c(c1O)C13CCNC(C2)C1CC(C)C(=O)C3 (stereo not drawn)
4. O=[N+]([O-])c1cccc(C(O)C(Cl)(Cl)Cl)c1 (stereo not drawn)

1. 234 °C
2. 200 to 201 °C
3. 163 to 165 °C
4. 91 to 95 °C

Answer for every listed entry: what is its melting point? The entries follow.
1. COc1ccc(C2CN(C)CCC2=NO)cc1 (stereo not drawn)
2. c1cc2nc3c(n2nc1N1CCOCC1)CCCC3
3. Cc1oc(-c2ccccc2)nc1CCOc1ccc(CCC(=O)NC(N)=O)cc1
4. CN(C)C1CCN(c2cc3ccccc3c(=O)[nH]2)C1 (stereo not drawn)
5. C=CCCCCCCCCC(=O)OC1CCC2C3CCC4=CC(=O)CCC4C3CCC12CC (stereo not drawn)
6. O=C1c2ccccc2C(=O)c2sc(-c3ccccc3F)nc21
7. COC(=O)CCc1oc(Cl)nc1-c1ccc(Cl)cc1
8. CCOc1ccnc(CSc2nc3cc4c(cc3[nH]2)C(C)(C)C(=O)C4(C)C)c1C

["121 to 122 °C", "188 °C", "177 to 178 °C", "233 to 234 °C", "87 to 88 °C", "> 260 °C", "71 to 72 °C", "175 to 176 °C"]

Answer for every listed entry: what is its melting point? The entries follow.
1. CCCCc1c(Cl)nc(C)nc1Cl
2. N#Cc1c(N2CCNCC2)c2cc(Cl)ccc2n(Cc2ccccc2)c1=O
3. O=C(O)Cc1cccc(CCNC(=O)C2Cc3ccccc3N2S(=O)(=O)c2ccc(-c3ccccc3C(F)(F)F)cc2)c1 (stereo not drawn)
4. CC(C)(CCCC(=O)O)c1cc(C(=O)O)c(O)c(C(C)(C)CCCC(=O)O)c1
5. Cc1ccc(C2(Br)C(=O)NC(=O)NC2=O)cc1
6. Cc1c(Cl)cccc1S(=O)(=O)Nc1ccc2nc(C)n(C)c2c1

50 to 51 °C
156 °C
78 °C
161 to 163 °C
210 to 213 °C
265 to 266 °C

---

PROPERTY_MEASURED: melting point

The following compounds have reported results that may help.
Name the recorded melting point for `COc1cc(-c2ncnc(C)c2Cl)c(F)cc1Cl` .
136 to 140 °C

Name the recorded melting point for CC(c1n[nH]c(=O)[nH]1)N1CCC[C@H](O[C@H](C)c2cc(C(F)(F)F)cc(C(F)(F)F)c2)[C@@H]1c1ccccc1 (some centres undefined) .
257 to 258 °C

Name the recorded melting point for `CCN1C(=O)OC(=Cc2ccc3c(c2)OCO3)C1=O` .
135 to 137 °C

Name the recorded melting point for `COCCC(=O)Nc1ccc(CCCc2ccccc2OCc2ccccc2)cc1` .
65 to 66 °C

Name the recorded melting point for `COc1ccc(-c2nc(-c3cccn3CC(=O)OCCC(C)C)sc2-c2ccc(OC)cc2)cc1` .
98.5 to 102 °C

Answer for every listed entry: what is its melting point? The entries follow.
1. CCC(C(=O)c1ccc(Cl)cc1)n1ncn(-c2ccc(N3CCN(c4cnccn4)CC3)nc2)c1=O (single isomer, unassigned; (+))
2. CC(=O)Nc1cc2c(cc1[N+](=O)[O-])OC(C)(C)C1OC21 (centres undefined)
3. Cc1noc(CC(=O)N(N)C(=O)c2ccco2)n1
4. CCCNC(=O)CCC(C)C1CCC2C3C(OC(C)=O)CC4CC(OO)(OO)CCC4(C)C3CC(OC(C)=O)C12C (centres undefined)
5. CCOc1ccc(C=NOCCO)cn1
6. CCCn1cc(Cc2ccc(C(=O)NS(=O)(=O)c3ccccc3C)cc2OC)c2cc(CCCCC(=O)N(C)C)ccc21
7. COc1ccc(C(=O)Nc2cccnc2)c2c1oc1ccccc12

190 °C
156 to 158 °C
169 to 171 °C
120 to 129 °C
52 to 54 °C
80 to 85 °C
226 °C

---

What melting point was measured for each of the following?

Name the recorded melting point for `COc1cc(F)cnc1OCC#Cc1ccc(Cl)nc1` .
101 to 102 °C

Name the recorded melting point for `COC(=O)c1ccc(OCCCCCCc2ccc3cc(OCc4ccccc4)c(OCc4ccccc4)cc3c2)cc1` .
121 to 125 °C

Name the recorded melting point for `COC1=C(OC)C(=O)C2=C(CC(CCCCCCCC(=O)O)(c3ccccc3)C2)C1=O` .
63 to 66 °C

Name the recorded melting point for `Cc1cc(C)c(N2c3ccccc3S(=O)(=O)c3ccccc32)c(C)c1` .
242 to 246 °C

Answer for every listed entry: what is its melting point? The entries follow.
1. COc1cccc2cccc(S(=O)(=O)N(C)C)c12
2. Cc1ccc(S(=O)(=O)N2CC2c2ccccc2)cc1 (stereo unspecified)
3. COc1ccc(C2(C#Cc3cc(N4CN=C(C)O4)cs3)CCC(=O)CC2)cc1OC1CCCC1
4. Cn1cc(C#N)c(Nc2ccc(Cl)cc2[N+](=O)[O-])n1
5. CCOC(=O)N1CCN(c2nn(-c3ccc(F)cc3)c3ccccc23)CC1
6. O=C1CCC(N2Cc3c(OCc4cccc(CN5CCN(S(=O)(=O)C(F)(F)F)CC5)c4)cccc3C2=O)C(=O)N1 (stereo unspecified)
7. COC(=O)C1CCC2ON=C(c3ccc(Cl)cc3)C2CC1 (stereo unspecified)

["146 to 149 °C", "92 to 94 °C", "90 to 91 °C", "205 °C", "109 to 111 °C", "150 to 152 °C", "150 to 185 °C"]

---

What melting point was measured for each of the following?

Name the recorded melting point for COC1=Nc2cc(OC)c(F)cc2C(c2ccccc2Cl)=NC1C(C)=O (centres undefined) .
172 to 174 °C

Answer for every listed entry: what is its melting point? The entries follow.
1. Nc1nc(O)c2c(n1)NCC(CCc1ccc(C(=O)N[C@@H](CCC(=O)O)C(=O)O)c(F)c1)C2 (some centres undefined)
2. COc1ccc(-c2[nH]c(C(N)(C(F)(F)F)C(F)(F)F)nc2-c2ccc(F)cc2)cc1
3. Brc1cccc(OCCOc2nccnc2N2CCNCC2)c1
4. O=C(O)c1cc(S(=O)(=O)Nc2ccc(Cl)cc2Cl)ccc1Cl
5. O=C(c1ccccc1)c1cc(O)ccc1O
6. CN(C)CC#C[C@H]1CC[C@H](CN(C)c2ncc(Br)cn2)CC1
7. CCc1nc2c(cnn2CC)c(NC2CCOCC2)c1CNC(=O)c1cccc(C(=O)NCc2ccc(F)c(-c3cccc(CN(C)CCN(C)C)c3)c2)c1

["199 to 209 °C", "123 to 124 °C", "62 to 63 °C", "174 °C", "160 to 162 °C", "71 to 72 °C", "126 to 129 °C"]

Name the recorded melting point for `N#Cc1c(-c2ccc(Cl)cc2)c(-c2ccc(Cl)cc2)n[nH]c1=O` .
271 to 272 °C

---

What melting point was measured for each of the following?

Name the recorded melting point for `Clc1ncc(-c2ccc3ccncc3c2)c2ccccc12` .
169 to 170 °C

Name the recorded melting point for `O=C(CC(F)=C(F)F)Oc1ccc([N+](=O)[O-])cc1` .
58 to 62 °C

Name the recorded melting point for `CCNC(=O)c1c(Br)ccc(OC)c1Cl` .
181 to 182 °C

Name the recorded melting point for COC(=O)NC1=NCC(c2ccccc2C)N1C (configuration not stated) .
158 to 161 °C

Name the recorded melting point for `COc1ccc(Cc2ccc(CO)nc2)cc1` .
55 to 58 °C

Name the recorded melting point for CC(Br)(CBr)CS(=O)(=O)Oc1ccc([N+](=O)[O-])cc1 (configuration not stated) .
56 to 58 °C

Name the recorded melting point for `O=C(Nc1ccc(C(=O)N2Cc3cccn3Cc3ccccc32)cc1)c1sc2ccccc2c1Cl` .
220 to 222 °C

Name the recorded melting point for `COc1cc(-c2cc3ccccc3[nH]2)ccc1O` .
165 °C

Name the recorded melting point for CC(NC(=O)c1ccccc1I)C(O)c1ccccc1 (configuration not stated) .
129 to 130 °C

Name the recorded melting point for `CC(=O)Nc1nc(C)c(S(=O)(=O)NC(C)(C)CO)s1` .
194 °C

Answer for every listed entry: what is its melting point? The entries follow.
1. Nc1ncnc2c1nnn2C1CCC(O)C1O (configuration not stated)
2. O=C(Nc1nnc[nH]1)c1ccc2ccccc2c1
3. CC(C)n1nc(-c2sc(C(N)=O)nc2-c2cccc(F)c2)ccc1=O
4. O=C(Cc1ccc2ccccc2c1)N1CC=C(c2cccc(C(F)(F)F)c2)CC1
5. O=C1CCC(c2cccc(O)c2)N1Cc1ccncc1 (configuration not stated)
6. COc1ccc2c(-c3ccccc3F)noc2c1I
7. N#Cc1ccc(-c2cn3cc(Br)ccc3n2)cc1

1: 244 to 245 °C; 2: 191 to 192 °C; 3: 248 to 250 °C; 4: 125 to 130 °C; 5: 148 to 150 °C; 6: 135 to 138 °C; 7: 218 to 219 °C

Answer for every listed entry: what is its melting point? The entries follow.
1. O=c1nc(N2CCN(c3ccc(Cl)cc3)CC2)sc2c([N+](=O)[O-])cc([N+](=O)[O-])cc12
2. CCn1nc(C(F)(F)F)cc1NC(=O)C1C(C)=CC=CC1(C(N)=O)C(C)C (configuration not stated)
3. CC(Sc1nc2ccccc2s1)C(N)=O (configuration not stated)

178 to 180 °C
223 to 226 °C
144 to 145 °C

Answer for every listed entry: what is its melting point? The entries follow.
1. CONC(=O)c1ccccc1S(=O)(=O)NC(=O)Nc1nc(C)cc(C)n1
2. COc1nc2ccc(Br)cc2cc1C(c1ccccc1)n1cccn1 (configuration not stated)

1: 218 °C; 2: 142 to 144 °C
